These entries and their values trace back to patent US20230312741A1.

Give measured IC50 for inhibiting the enzymatic activity of CD73 (Calu-6 cells) for each item. Keep answers brief.
- target_of_assay: T1, human CD73 expressed on the cell surface (human, UniProt P21589 27-549)
- T1 sequence: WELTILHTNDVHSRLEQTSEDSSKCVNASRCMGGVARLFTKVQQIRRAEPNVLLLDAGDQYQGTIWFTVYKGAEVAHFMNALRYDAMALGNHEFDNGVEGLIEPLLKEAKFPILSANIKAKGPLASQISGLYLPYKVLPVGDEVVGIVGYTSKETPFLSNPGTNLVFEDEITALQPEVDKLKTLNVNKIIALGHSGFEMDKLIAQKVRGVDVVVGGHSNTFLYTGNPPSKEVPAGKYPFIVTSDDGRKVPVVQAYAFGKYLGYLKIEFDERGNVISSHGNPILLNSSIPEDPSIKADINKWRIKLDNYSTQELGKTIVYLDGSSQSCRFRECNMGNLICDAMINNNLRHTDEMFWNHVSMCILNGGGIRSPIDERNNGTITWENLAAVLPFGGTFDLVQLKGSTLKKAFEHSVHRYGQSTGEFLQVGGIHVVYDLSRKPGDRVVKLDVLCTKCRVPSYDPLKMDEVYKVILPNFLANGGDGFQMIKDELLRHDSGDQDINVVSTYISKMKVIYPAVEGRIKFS
- procedure_summary: cell-based or functional assay
Give the figure together with its unit, number first.

Exercise: I'd like to know its IC50 for inhibiting the enzymatic activity of CD73 (Calu-6 cells). The binder in question is ADI-37507 (antibody, human IgG4 S228P, kappa, F234A L235A, V domains shown) VH: EVQLLESGGGLVQPGGSLRLSCAASGFTFLNYAMAWVRQAPGKGLEWVSAISGRATSTYYADSVKGRFTISRDNSKNTLYLQMNSLRAEDTAVYYCARGGPYGSGSYWDTFDYWGQGTLVTVSS VL: EIVMTQSPATLSVSPGERATLSCRASQSVSSNLAWYQQKPGQAPRLLIYGASTRATGIPARFSGSGSGTEFTLTISSLQSEDFAVYYCQQYTNHYTFGGGTKVEIKR
Key: 78 ng/mL

Exercise: I'd like to know its IC50 for inhibiting the enzymatic activity of CD73 (Calu-6 cells). The binder in question is ADI-37532 (antibody, human IgG4 S228P, kappa, F234A L235A, V domains shown) VH: QVQLVESGGGVVQPGRSLRLSCAASGFTFSSYSMHWVRQAPGKGLEWVAHIVEGSDKYYADSVKGRFTISRDNSKNTLYLQMNSLRAEDTAVYYCARSRYDWSLFDIWGQGTMVTVSS VL: EIVLTQSPGTLSLSPGERATLSCGASQSVSSSYLAWYQQKPGQAPRLLIYGASSRATGIPDRFSGSGSGTDFTLTISRLEPEDFAVYYCQQYVLYPFTFGGGTKVEIKR
Key: 114 ng/mL

Exercise: I'd like to know its IC50 for inhibiting the enzymatic activity of CD73 (Calu-6 cells). The binder in question is ADI-37522 (antibody, human IgG4 S228P, kappa, F234A L235A, V domains shown) VH: QVQLVESGGGVVQPGRSLRLSCAASGFTFSHYGMHWVRQAPGKGLEWVAVISDEGSNKYYADSVKGRFTISRDNSKNTLYLQMNSLRAEDTAVYYCARGWLRYPIAFDIWGQGTMVTVSS VL: DIQLTQSPSSVSASVGDRVTITCRASQDISSWLAWYQQKPGKAPKLLIYAASSLQSGVPSRFSGSGSGTDFTLTISSLQPEDFATYYCQQANDFPITFGGGTKVEIKR
Key: 146 ng/mL
